- System: Hepatotoxicity
For each record, write down the corresponding HepSE_Combined Scores.
Numbers only.

Sample records with HepSE_Combined Scores:
Molecule | Target or test system | Parameter | Value
CN1C(CCl)Nc2cc(Cl)c(S(N)(=O)=O)cc2S1(=O)=O (stereo not drawn) [METHYCLOTHIAZIDE] | Hepatotoxicity | HepSE_Combined Scores | 1
OC[C@H]1O[C@@H](O)[C@@H](F)[C@@H](O)[C@@H]1O | Hepatotoxicity | HepSE_Combined Scores | 0
CN1C[C@H](C(=O)N[C@]2(C)O[C@@]3(O)[C@@H]4CCCN4C(=O)[C@H](Cc4ccccc4)N3C2=O)C[C@@H]2c3cccc4[nH]cc(c34)C[C@H]21 [DIHYDROERGOTAMINE] | Hepatotoxicity | HepSE_Combined Scores | 0

For every record below, what is its HepSE_Combined Scores?
1. O=C(O)c1ccc(-n2nc(-c3ccccc3O)nc2-c2ccccc2O)cc1 [DEFERASIROX]
2. O=C1CC[C@@]2(O)[C@H]3Cc4ccc(O)c5c4[C@@]2(CCN3CC2CC2)[C@H]1O5 [NALTREXONE]
3. C[C@@H](NCCCc1cccc(C(F)(F)F)c1)c1cccc2ccccc12
4. NC12CC3CC(CC(C3)C1)C2 [AMANTADINE]
5. Cc1nc2ccc(CN(C)c3ccc(C(=O)N[C@@H](CCC(=O)O)C(=O)O)s3)cc2c(=O)[nH]1 [RALTITREXED]

[A]
1: 5; 2: 2; 3: 0; 4: 0; 5: 1

====

- Test system: Hepatotoxicity
- Conditions used: Liver
For each record, write down the corresponding HepSE_jaundice.
Numbers only.

Sample records with HepSE_jaundice:
Compound | Value
NCCc1ccc(O)c(O)c1 [DOPAMINE] | 0
CCOC(=O)N1CCC(=C2c3ccc(Cl)cc3CCc3cccnc32)CC1 [LORATADINE] | 0
Nc1ccc(S(=O)(=O)c2ccc(N)cc2)cc1 [DAPSONE] | 0

For every record below, what is its HepSE_jaundice?
1. CCCNCC(O)COc1ccccc1C(=O)CCc1ccccc1 (stereo unspecified) [PROPAFENONE]
2. O=P1(N(CCCl)CCCl)NCCCO1 (stereo unspecified) [CYCLOPHOSPHAMIDE ANHYDROUS]
3. O=C(O)O [BICARBONATE]

[A]
1: 1; 2: 1; 3: 0

====

Parameter 'readout' = HepSE_Combined Scores; parameter 'system' = Hepatotoxicity.
Answers are plain numbers.

Sample records with HepSE_Combined Scores:
Molecule | HepSE_Combined Scores
CCOC(=O)CC(SP(=S)(OC)OC)C(=O)OCC (stereo not drawn) | 0
C[C@]12CCC(=O)C=C1CC[C@@H]1[C@@H]2[C@@H](O)C[C@@]2(C)[C@H]1CC[C@]2(O)C(=O)CO [HYDROCORTISONE] | 1

Turning now to a further record.
[Q] Requested read-out: HepSE_Combined Scores. Entry: `O=C(O)c1cc(/N=N/c2ccc(S(=O)(=O)Nc3ccccn3)cc2)ccc1O`
[A] 7

====

- Test system: Hepatotoxicity
For each record, write down the corresponding HepSE_Combined Scores.
Numbers only.

Sample records with HepSE_Combined Scores:
Substance | HepSE_Combined Scores
GOLD SODIUM THIOMALATE | 2
COLESEVELAM HYDROCHLORIDE | 0
CISPLATIN | 0
GADODIAMIDE | 0
GADOFOSVESET TRISODIUM | 0
OXALIPLATIN | 2
AURANOFIN | 1
SEVELAMER | 0
GENTAMICIN | 1
PORFIMER SODIUM | 1

For every record below, what is its HepSE_Combined Scores?
1. CARBOPLATIN
2. MANGAFODIPIR

[A]
1
0

For every record below, what is its HepSE_Combined Scores?
1. VERTEPORFIN
2. GADOTERIDOL
3. COLESTIPOL

[A]
[1, 0, 2]
